Tested System: human recombinant BACE1 (Homo sapiens)
Construct: purchased PanVera Co. (Madison, WI, USA)
Sequence (P56817 46-501): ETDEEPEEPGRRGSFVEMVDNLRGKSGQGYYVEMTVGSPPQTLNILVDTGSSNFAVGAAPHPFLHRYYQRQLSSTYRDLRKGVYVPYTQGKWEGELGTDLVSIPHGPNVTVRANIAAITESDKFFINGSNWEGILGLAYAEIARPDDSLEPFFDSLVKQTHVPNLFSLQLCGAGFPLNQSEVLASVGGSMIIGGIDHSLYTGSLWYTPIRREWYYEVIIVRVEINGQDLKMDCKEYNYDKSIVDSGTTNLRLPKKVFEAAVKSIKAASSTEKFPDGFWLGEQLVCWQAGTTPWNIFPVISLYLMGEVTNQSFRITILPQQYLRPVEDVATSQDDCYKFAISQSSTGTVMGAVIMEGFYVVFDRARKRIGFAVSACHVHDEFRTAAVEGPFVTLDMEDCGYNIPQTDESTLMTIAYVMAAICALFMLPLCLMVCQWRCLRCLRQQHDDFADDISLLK
Procedure Details: In vitro BACE1 FRET enzyme assay
Type: biochemical
Protocol: A BACE1 fluorescence resonance energy transfer (FRET) assay kit (β-secretase, human recombinant) was purchased from PanVera Co. (Madison, WI, USA). The assay was carried out according to the provided manual with slight modifications, as described in a previous study.
Value Kind: IC50
Numeric answer plus unit only.

Please give the measured IC50 for this compound: O=c1ccc2ccc(O)cc2o1 [Compound 1, umbelliferone] 169 µM

* * *

Tested System: Electric eel acetylcholinesterase (AChE) (Electrophorus electricus)
Construct: purchased Sigma-Aldrich Co. (St. Louis, MO, USA)
Sequence (O42275 24-633): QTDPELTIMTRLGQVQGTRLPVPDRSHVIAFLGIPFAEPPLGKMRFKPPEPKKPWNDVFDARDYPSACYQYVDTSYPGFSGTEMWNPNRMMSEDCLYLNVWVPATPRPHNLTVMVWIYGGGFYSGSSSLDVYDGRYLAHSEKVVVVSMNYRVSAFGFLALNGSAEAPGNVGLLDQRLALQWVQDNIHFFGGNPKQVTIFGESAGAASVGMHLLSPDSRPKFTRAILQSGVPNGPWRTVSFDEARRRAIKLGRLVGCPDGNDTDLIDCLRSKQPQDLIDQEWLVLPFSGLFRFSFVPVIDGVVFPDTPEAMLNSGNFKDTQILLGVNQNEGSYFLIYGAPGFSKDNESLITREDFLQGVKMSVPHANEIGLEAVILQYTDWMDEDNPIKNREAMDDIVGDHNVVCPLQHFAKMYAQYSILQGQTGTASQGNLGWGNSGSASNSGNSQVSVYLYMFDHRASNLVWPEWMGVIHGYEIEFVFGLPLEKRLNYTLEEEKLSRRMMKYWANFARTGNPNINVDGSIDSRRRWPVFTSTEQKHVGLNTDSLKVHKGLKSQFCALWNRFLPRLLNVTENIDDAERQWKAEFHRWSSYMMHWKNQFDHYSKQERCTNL
Procedure Details: biochemical
Condition: IC50 AChE, electric eel AChE; mean ± SEM of triplicate experiments
Value Kind: IC50

Please give the measured IC50 for this compound: COc1ccc2cc3[n+](cc2c1OC)CCc1cc2c(cc1-3)OCO2 [Berberine, berberine, reference compound] < 0.32 µM

Reference source for all entries: paper PMC6151429
